System: TK-10
Experiment: NCI tumour cell line growth inhibition, 48 h
Activity calls are given as the source filed them. Cut-off read from the data, not from the text of the source: active = GI50 up to about 1.1 µM and inactive = higher.
Outcome codes: t for active, f for inactive

- compound: "Cc1ccccc1C(=O)c1ccccc1O"
  class: "f"
- compound: "CC(C)=C1C(=O)c2c(Cl)sc(Cl)c2C1=O"
  class: "f"
- compound: "CC1(C)C[C@@H]2C1CCC1(C)CC2(O)CC[C@H]1O (some centres not stated)"
  class: "f"
- compound: "O=C1C=C(Br)C(=O)C12CCc1ccccc12 (configuration not stated)"
  class: "f"
- compound: "O=C1OC(c2ccc(O)c(-c3ccccc3)c2)(c2ccc(O)c(-c3ccccc3)c2)c2c(Cl)c(Cl)c(Cl)c(Cl)c21"
  class: "f"
- compound: "COCC(=O)[C@]1(O)Cc2c(O)c3c(c(O)c2[C@@H](OC2CC(N)C(O)C(C)O2)C1)C(=O)c1c(OC)cccc1C3=O (some centres not stated)"
  class: "t"
- compound: "CCOC(=O)C(=CNc1ccc(NC2=NCC(C)S2)cc1)C(=O)OCC (configuration not stated)"
  class: "f"
- compound: "CNC(=S)c1nnsc1N"
  class: "f"
- compound: "O=NN(Cc1ccc(Cl)cc1)C(C(=O)O)c1ccccc1 (configuration not stated)"
  class: "f"
- compound: "CSc1c(C#N)c2n(c3ccccc13)c1ccccc1[n+]2C"
  class: "f"
- compound: "NC(Cc1ccc2oc3cc(=O)c4ccccc4c-3nc2c1)C(=O)O (configuration not stated)"
  class: "f"
- compound: "OC(CN(CCCl)CCCl)C(O)C(O)C(O)CN(CCCl)CCCl (configuration not stated)"
  class: "f"
- compound: "CCP(C)(=O)CC"
  class: "f"
- compound: "CCOC(=O)c1ccc(NC(=O)O/N=C(/Cl)C(C)C)cc1"
  class: "f"
- compound: "CN(C)CC1CC/C(=C\\c2ccc(O)cc2)C1=O (configuration not stated)"
  class: "f"
- compound: "Cc1ccc(S(=O)(=O)NC(=O)NC23CC4CC(CC(F)(C4)C2)C3)cc1"
  class: "f"
- compound: "O=C(CC(=O)n1nc(-c2ccccc2)c(/N=N/c2ccccc2Cl)c1-c1ccccc1)Nc1ccc(Cl)cc1"
  class: "f"
